- targetOrSystem: AFV3-109 (Betalipothrixvirus acidiani, UniProt A7WKA5)
- Construct: homodimer in solution and crystal
- experiment: tryptophan fluorescence quenching titration
- cond: read-out: KDapp
measurementLabel: pKd
Recall that pKd is obtained by taking minus log10 of the concentration measured in molar.

Using the record for OCC(O)CO , state its measured pKd.
5.77
